# Target system: P2Y purinoceptor 1 (Meleagris gallopavo, UniProt P49652)
# Sequence (P49652 whole entry): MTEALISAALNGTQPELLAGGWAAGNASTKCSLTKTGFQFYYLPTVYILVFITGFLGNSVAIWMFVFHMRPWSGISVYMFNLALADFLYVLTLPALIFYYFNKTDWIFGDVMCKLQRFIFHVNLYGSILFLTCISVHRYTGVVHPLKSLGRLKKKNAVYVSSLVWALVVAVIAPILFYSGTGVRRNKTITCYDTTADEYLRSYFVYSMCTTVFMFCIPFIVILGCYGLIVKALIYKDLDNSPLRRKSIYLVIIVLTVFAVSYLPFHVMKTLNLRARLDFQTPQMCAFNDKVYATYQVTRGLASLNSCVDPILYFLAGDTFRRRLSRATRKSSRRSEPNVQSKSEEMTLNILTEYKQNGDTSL
# Test details: Agonist activity at turkey P2Y1 receptor expressed in human […] receptor assessed as induction of intracellular calcium mobilization
# Assay type: functional, cell-based
# Condition notes: read-out: EC50
Quick reference for log10 EC50 among some compounds
Values reflect log10 of reported EC50 (nM).

Worked set:
>>> reported_result("CSc1nc(N)c2ncn([C@@H]3O[C@H](COP(=O)(O)C(F)(F)P(=O)(O)O)[C@@H](O)[C@H]3O)c2n1")
2.99
>>> reported_result("BP(=O)(OC[C@H]1O[C@@H](n2cnc3c(N)nc(SC)nc32)[C@H](O)[C@@H]1O)OP(=O)(O)C(Cl)(Cl)P(=O)(O)O (stereo in doubt; 12A)")
2.76
>>> reported_result("CSc1nc(N)c2ncn([C@@H]3O[C@H](COP(=O)(O)C(Cl)(Cl)P(=O)(O)O)[C@@H](O)[C@H]3O)c2n1")
3.49
>>> reported_result("BP(=O)(OC[C@H]1O[C@@H](n2cnc3c(N)nc(SC)nc32)[C@H](O)[C@@H]1O)OP(=O)(O)C(Cl)(Cl)P(=O)(O)O (stereo in doubt; 12B)")
3.08
>>> reported_result("CSc1nc(N)c2ncn([C@@H]3O[C@H](COP(=O)(O)OP(=O)(O)C(Cl)(Cl)P(=O)(O)O)[C@@H](O)[C@H]3O)c2n1")
3.98

Value lookup for log10 EC50; key = BP(=O)(OC[C@H]1O[C@@H](n2cnc3c(N)nc(SC)nc32)[C@H](O)[C@@H]1O)OP(=O)(O)C(F)(F)P(=O)(O)O (stereo in doubt; 10B)
3.33

Can you check `CSc1nc(N)c2ncn([C@@H]3O[C@H](COP(=O)(O)OP(=O)(O)C(F)(F)P(=O)(O)O)[C@@H](O)[C@H]3O)c2n1` next?
2.88

###

# Test details: Association constant pKa of the compound
# Assay type: physicochemical
Quick reference for pKa among some molecules
Lab note: write the figure by itself, no unit.

Worked set:
>>> reported_result("BP(=O)(OC[C@H]1O[C@@H](n2cnc3c(N)nc(SC)nc32)[C@H](O)[C@@H]1O)OP(=O)(O)CP(=O)(O)O (some centres undefined)")
8.4
>>> reported_result("BP(=O)(OC[C@H]1O[C@@H](n2cnc3c(N)nc(SC)nc32)[C@H](O)[C@@H]1O)OP(=O)(O)C(Cl)(Cl)P(=O)(O)O (stereo in doubt; 12A)")
7
>>> reported_result("CSc1nc(N)c2ncn([C@@H]3O[C@H](COP(=O)(O)C(F)(F)P(=O)(O)O)[C@@H](O)[C@H]3O)c2n1")
7

Next up:
Value lookup for pKa; key = `CSc1nc(N)c2ncn([C@@H]3O[C@H](COP(=O)(O)OP(=O)(O)C(F)(F)P(=O)(O)O)[C@@H](O)[C@H]3O)c2n1`
7

###

# Test details: Chemical stability assessed as enzymatic stability at 100 uM after 20 mins in presence of human NPP1
# Assay type: physicochemical
Test readout: Activity

Worked set:
>>> reported_result("BP(=O)(OC[C@H]1O[C@@H](n2cnc3c(N)nc(SC)nc32)[C@H](O)[C@@H]1O)OP(=O)(O)C(F)(F)P(=O)(O)O (stereo in doubt; 10A)")
"4%"
>>> reported_result("CSc1nc(N)c2ncn([C@@H]3O[C@H](COP(=O)(O)C(F)(F)P(=O)(O)O)[C@@H](O)[C@H]3O)c2n1")
"3.9%"
>>> reported_result("BP(=O)(OC[C@H]1O[C@@H](n2cnc3c(N)ncnc32)[C@H](O)[C@@H]1O)OP(=O)(O)C(Cl)(Cl)P(=O)(O)O (stereo in doubt; 11B)")
"3.3%"

Next up:
Value lookup for Activity; key = BP(=O)(OC[C@H]1O[C@@H](n2cnc3c(N)nc(SC)nc32)[C@H](O)[C@@H]1O)OP(=O)(O)C(Cl)(Cl)P(=O)(O)O (stereo in doubt; 12A)
0.7%
